test: Quantitative High-Throughput drug screen in 47 multiple myeloma cell lines against the NCATS MIPE library collection: INA6_PLB cell viability assay (AID 1918965; further: potency means the concentration at half of the fitted maximal effect; nearly all actives have a fitted effect of over 55% in size); conditions: INA6 myeloma viability, CellTiter-Glo ATP luminescence, 48 h; series mostly up to 45.8 µM
Inconclusive results are not listed. Active and inactive are the calls of the source. The call rests on the fitted dose curve; in most records, active means well fitted cell-killing curve with a large enough effect; inconclusive means small, poorly fitted or top-dose-only effect, or effect the other way; inactive means no such curve, though single readings can be large or run the other way.
measure-name: Potency

## Input Request the reported Potency associated with Cc1ccc2nc(NC(=O)CSc3nc4c(c(=O)n3-c3ccccc3)SCC4)sc2c1
## Output 8330 nM (active)

## Input Proceed to CNc1nccc(-c2cccnc2Oc2cc(C(=O)Nc3cccc(C(F)(F)F)c3)ccc2C)n1
## Output 4180 nM (active)

## Input Consider next the compound COc1cc(C)c(Sc2cnc(NC(=O)c3ccc(CNC(C)C(C)C)cc3)s2)cc1C(=O)N1CCN(C(C)=O)CC1 (stereo not drawn) in the same way.
## Output 18700 nM (active)

## Input And then CN1CCN(Cc2ccc(NC(=O)Nc3ccc(Oc4cc(NC(=O)C5CC5)ncn4)cc3)cc2C(F)(F)F)CC1 , what is it?
## Output 132 nM (active)

## Input And then CC[C@@]1(O)C(=O)OCc2c1cc1n(c2=O)Cc2cc3cc(O)ccc3nc2-1 , what is it?
## Output 16.6 nM (active)

## Input Please give the result for COc1cc(-c2nn(C3CCC(N4CCN(C(C)=O)CC4)CC3)c3ncnc(N)c23)ccc1NC(=O)c1cc2ccccc2n1C (stereo not drawn) too.
## Output 2960 nM (active)

## Input Repeat for the following compound: CN[C@H]1CCc2cc(OC)c(OC)c(OC)c2-c2ccc(OC)c(=O)cc21
## Output 1 nM (active)

====

tested on: CP268; assay: qHTS profiling for inhibitors of Plasmodium falciparum proliferation (AID 504749); further: nearly all actives have a fitted effect of over 60% in size; conditions: P. falciparum in erythrocytes, SYBR Green DNA, 72 h; series mostly up to 28.7 µM
Records with an inconclusive call do not appear. Activity calls are given as the source filed them. Calls follow the shape of the dose curve; as a rule, active = well fitted inhibition curve with a large enough effect; inconclusive = small, poorly fitted or top-dose-only effect; inactive = flat fitted curve, though single readings scatter.
# valid calls are active, inactive; nothing else

## Input # outcome recorded in this test, key = O=C(O)CO.[NH2-].[NH2-].[Pt+2]
## Output inactive

## Input Try CC[C@H]1CN2CCc3cc(OC)c(OC)cc3[C@H]2C[C@@H]1C[C@@H]1NCCc2cc(OC)c(OC)cc21 next.
## Output active

## Input Next molecule: Nc1ccn([C@@H]2O[C@H](CO)[C@H](O)C2(F)F)c(=O)n1
## Output active

## Input Entry to check: CN1c2cc(O)c(N=NC(N)=O)cc2CC1S(=O)(=O)O (stereo not drawn)
## Output inactive

## Input Next molecule: O=c1[nH]c(=O)n(C2CCCO2)cc1F (stereo not drawn)
## Output inactive

## Input Entry to check: COc1cc(C(=O)NS(=O)(=O)c2ccccc2C)ccc1Cc1cn(C)c2ccc(NC(=O)OC3CCCC3)cc12
## Output inactive

## Input Subsequent entry: C[C@H]1C[C@@H]2[C@@H]([C@@H](O)C[C@@]3(C)[C@H]2CC[C@]3(O)C(=O)CO)[C@@]2(C)C=CC(=O)C=C12
## Output inactive

## Input Subsequent entry: Nc1ccn([C@@H]2CS[C@H](CO)O2)c(=O)n1
## Output inactive

====

system: NIH3T3; experiment: Cytotoxic Profiling of Annotated Libraries Using Quantitative High-Throughput Screening (AID 1296008); settings: Five cell lines viability, CellTiter-Glo ATP luminescence, 48-72 h; further: nearly all actives have a fitted effect of over 60% in size; further: potency means the concentration at half of the fitted maximal effect
Results filed as inconclusive are left out. Active and inactive are the calls of the source. The call rests on the fitted dose curve; in most records, active means well fitted inhibition curve with a large enough effect; inconclusive means small, poorly fitted or top-dose-only effect; inactive means flat fitted curve, though single readings scatter.
measure-name: Potency

> print(dat)
                                   compound  measure.name            result
1  CNC(=O)c1ccc(N2C(=S)N(c3cnc(C#N)c(C(F)(F)F)c3)C(=O)C23CCC3)cc1F       Potency          inactive
2              C1Cc2[nH]nc(-c3nn[nH]n3)c2C1       Potency          inactive
3  CN1CCN(Cc2ccc(NC(=O)Nc3ccc(Oc4cc(NC(=O)C5CC5)ncn4)cc3)cc2C(F)(F)F)CC1       Potency  0.59 µM (active)
4  CC(C)(C)OC(=O)Nc1ccc(-c2cc(C(=O)NCCCCCCC(=O)NO)no2)cc1       Potency  14.8 µM (active)
5  CCOc1cc2ncc(C#N)c(Nc3ccc(F)c(Cl)c3)c2cc1NC(=O)C=CCN(C)C       Potency  1.48 µM (active)

## Input # value lookup — system NIH3T3, readout Potency, item C[C@H]1C[C@@H]2[C@@H]([C@@H](O)C[C@@]3(C)[C@H]2CC[C@]3(O)C(=O)CO)[C@@]2(C)C=CC(=O)C=C12
## Output inactive

## Input Note, next up: CN1CC[C@@H](c2c(O)cc(O)c3c(=O)cc(-c4ccccc4Cl)oc23)[C@@H](O)C1
## Output 0.526 µM (active)

## Input Also C[C@@]12O[C@@H](C[C@]1(O)CO)n1c3ccccc3c3c4c(c5c6ccccc6n2c5c31)CNC4=O ?
## Output 1.87 µM (active)

## Input What about Cn1cc(-c2[nH]c3cc(NC(=O)[C@H](N)C4CCCCC4)cc4c3c2C=NNC4=O)cn1 ?
## Output 14.8 µM (active)

## Input Then CCN1CCN(Cc2ccc(-c3cc4c(N[C@H](C)c5ccccc5)ncnc4[nH]3)cc2)CC1 ?
## Output 16.6 µM (active)

## Input Same question for CC1COC2(CCN(c3nc(=O)c4cc(C(F)(F)F)cc([N+](=O)[O-])c4s3)CC2)O1 (stereo unspecified) please.
## Output inactive
